Biological target: T1, ZFP SBS#1338 (synthetic)
T1 chain: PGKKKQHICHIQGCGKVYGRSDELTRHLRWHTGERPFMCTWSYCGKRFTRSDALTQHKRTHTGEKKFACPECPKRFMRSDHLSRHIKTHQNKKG
Assay: EMSA
Details: tags: MBP fusion
Readout label: Kd

INSERT INTO results (binder, readout_label, reported_value) VALUES
  ('GGGATGGCG (dsDNA) DNA 1: GGGATGGCG DNA 2: CGCCATCCC', 'Kd', '1.04 nM');
